Conditions: in ethyl acetate, 308.2 K
Readout Name: solubility (mole fraction)

INSERT INTO results (chem_smiles, experimental_result) VALUES
  ('C=C1CCC[C@]2(C)C[C@]3(O)OC(=O)C(C)=C3C[C@@H]12', 0.0261);

---

Conditions: in n-hexane, 298.2 K
Readout Name: solubility (mole fraction)

INSERT INTO assay_data (chem_smiles, experimental_result) VALUES
  ('C=C1CCC[C@]2(C)C[C@]3(O)OC(=O)C(C)=C3C[C@@H]12', '8.32e-05');

---

Details: in ethanol, 313.2 K
Readout Name: solubility (mole fraction)

INSERT INTO measurements (chem_smiles, experimental_result) VALUES
  ('C=C1CCC[C@]2(C)C[C@]3(O)OC(=O)C(C)=C3C[C@@H]12', 0.0131);
